- assay.protocol: qHTS Assay for Rab9 Promoter Activators; further: nearly all actives have a fitted effect of over 60% in size
- condition.set: Huh7 Rab9 promoter-luciferase reporter, luminescence, 24 h; series mostly up to 9.22 µM
Hit rate of the full screen: of about 320,000 compounds, about 9,100 (2.8%) were called active. Another 3% or so got no clear call; they are omitted. The call rests on the fitted dose curve; in most records, active means well fitted activation curve with a large enough effect; inconclusive means small, poorly fitted or top-dose-only effect; inactive means no such curve, though single readings can be large or run the other way. What follows is part of a selection rich in actives, with near analogues and random picks from the rest.
Form entry, call: pick from t (active), f (inactive)

Request: Which result was noted for this compound in the test: O=C1C=C(c2cccc(Cl)c2O)C[C@@H](c2ccc(F)cc2)C1
Response: f

Request: Call for entry COc1ccc(Cn2c(=S)[nH]c3cc(C(=O)N4CCCCC4)ccc3c2=O)cc1 :
Response: f

Request: Assay outcome for CC(=O)c1sc(NC(=O)c2ccc(C)cc2)nc1C : what was it?
Response: t

Request: Tell me the recorded outcome of this test for COc1cc2ccccc2cc1C(=O)Nc1ccccc1C .
Response: f

Request: # lookup: test call for Cc1nnc(C)n1/N=C/c1ccc(C(C)C)cc1
Response: f

Request: // outcome(item) with item = COc1ccccc1N1CC(C(=O)NCCN2C(=O)S/C(=C\c3cccnc3)C2=O)CC1=O (configuration not stated)
Response: f

Request: Dear all, I need the recorded test outcome for O=c1cc(CCl)nc2scc(-c3ccccc3)n12 , thank you.
Response: f

Request: Please share the test call associated with N#Cc1nc(-c2cccc3ccccc23)oc1N .
Response: f

Request: For CCN(CC(=O)Nc1ccccc1OC)C(=O)CC1CC2CCC1C2 (configuration not stated) , which call appears in the assay record?
Response: f

Request: State the result this test recorded for CCOC(=O)CN(C(=O)CN1CCOCC1)c1ccc(Br)cc1 .
Response: f

Request: What is the recorded call for this compound in the test? CCc1ccc(OCC(=O)OCC(=O)c2c(N)n(C)c(=O)n(C)c2=O)cc1
Response: f

Request: # outcome recorded in this test, key = CCC(=O)N1CCCc2ccccc21
Response: f
